- Tested on: H3255
- Measurement Notes: relative viability (nuclei count vs DMSO), 5 days (fraction); higher = more cells survive
- Conditions Used: first compound 0.8 µM
Attribute Measured: relative viability

Molecule | relative viability
O=c1cc(-c2cccc3c2Sc2ccccc2S3)oc(N2CCOCC2)c1 + CS(=O)(=O)N1CCN(Cc2cc3nc(-c4cccc5[nH]ncc45)nc(N4CCOCC4)c3s2)CC1 [Pictilisib] (partner 1 µM) | 0.427
COc1nc(C)cnc1NS(=O)(=O)c1cccnc1-c1ccc(-c2nnco2)cc1 [Zibotentan] + Cc1nc(NC(=O)N2CCC[C@H]2C(N)=O)sc1-c1ccnc(C(C)(C)C(F)(F)F)c1 [Alpelisib] (partner 2 µM) | 0.672
O=c1cc(-c2cccc3c2Sc2ccccc2S3)oc(N2CCOCC2)c1 + C[C@]1(O)C[C@@H](c2nc(-c3ccc4ccc(-c5ccccc5)nc4c3)c3c(N)nccn32)C1 [Linsitinib] (partner 1 µM) | 1.02
COc1nc(C)cnc1NS(=O)(=O)c1cccnc1-c1ccc(-c2nnco2)cc1 [Zibotentan] + CS(=O)(=O)N1CCN(Cc2cc3nc(-c4cccc5[nH]ncc45)nc(N4CCOCC4)c3s2)CC1 [Pictilisib] (partner 1 µM) | 0.467
O=c1cc(-c2cccc3c2Sc2ccccc2S3)oc(N2CCOCC2)c1 + CC(=O)Nc1cccc(-n2c(=O)n(C3CC3)c(=O)c3c(Nc4ccc(I)cc4F)n(C)c(=O)c(C)c32)c1 [Trametinib] (partner 0.02 µM) | 0.681
O=c1cc(-c2cccc3c2Sc2ccccc2S3)oc(N2CCOCC2)c1 + C[C@@H](Oc1cc(-c2cnn(C3CCNCC3)c2)cnc1N)c1c(Cl)ccc(F)c1Cl [Crizotinib] (partner 1 µM) | 1.02

# get_value(readout='relative viability', item= COc1nc(C)cnc1NS(=O)(=O)c1cccnc1-c1ccc(-c2nnco2)cc1 [Zibotentan] + C[C@@H](Oc1cc(-c2cnn(C3CCNCC3)c2)cnc1N)c1c(Cl)ccc(F)c1Cl [Crizotinib] (partner 1 µM) )
0.975

# get_value(readout='relative viability', item= COc1nc(C)cnc1NS(=O)(=O)c1cccnc1-c1ccc(-c2nnco2)cc1 [Zibotentan] + CC1(C)CCC(c2ccc(Cl)cc2)=C(CN2CCN(c3ccc(C(=O)NS(=O)(=O)c4ccc(N[C@H](CCN5CCOCC5)CSc5ccccc5)c(S(=O)(=O)C(F)(F)F)c4)cc3)CC2)C1 [Navitoclax] (partner 0.5 µM) )
0.609
